Target: T1, CD123 (Homo sapiens (Human), UniProt P26951 19-305, limits assumed)
T1 construct: The CD123 construct used in the ELISA is not described; also called CD123-Signal
T1 sequence: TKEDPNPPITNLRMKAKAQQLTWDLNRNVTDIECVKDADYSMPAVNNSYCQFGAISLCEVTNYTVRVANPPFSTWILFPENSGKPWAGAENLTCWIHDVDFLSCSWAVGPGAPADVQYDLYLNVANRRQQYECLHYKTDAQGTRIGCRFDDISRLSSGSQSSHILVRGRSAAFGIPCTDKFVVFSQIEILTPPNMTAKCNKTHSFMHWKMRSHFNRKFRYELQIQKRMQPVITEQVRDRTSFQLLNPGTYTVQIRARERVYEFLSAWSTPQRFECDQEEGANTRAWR
Test: ELISA
Set-up: unit not given here
Decide by ELISA_avg: equal to or exceeding 9 means T, less means F.

Below are worked cases with known answers.
D domain of SEQ ID NO: 608 (designed binder) MGSWLEFESRLWAIWDRLDALGGSEAELAHFEQDIADFEMSLQEYKGKGNPEVEALIREAEAIETELYAYRHN ... F
D domain of SEQ ID NO: 408 (designed binder) MGSWYEFSNRLDAIGERLWALGGSEAELAAFEKEIAAFESELQAYKGKGNPEVEILRHQAAEIRWFLQAYRHN ... F
D domain of SEQ ID NO: 490 (designed binder) MGSWNSFKDELAEIKAELEALGGSEAELAFFEEDIAWFEEHLQQYKGKGNPEVEALRKEAAAIRDELQAYRHN ... F
D domain of SEQ ID NO: 591 (designed binder) MGSWNEFYERLEAIDRRLFALGGSEAELALFEWMIADFEDDLQMYKGKGNPEVEALINEAGAIGFELEAYRHN ... F
D domain of SEQ ID NO: 412 (designed binder) MGSWFEFWDRLEAIWERLDALGGSEAELAAFEKEIAAFESELQAYKGKGNPEVEELRREAAIIREDLQAYRHN ... T

Form field: ELISA_avg at least 9? Entry: D domain of SEQ ID NO: 633 (designed binder) MGSWEEFEDRLWAIDGRLYALGGSEAELAWFEQWIATFEEDLQDYKGKGNPEVEALEYEASAIFEELEAYRHN
T

Moving on to D domain of SEQ ID NO: 477 (designed binder) MGSWYWFKDDLAEIKGLLEALGGSEAELAEFEDEIAVFEQELQEYKGKGNPEVEALRKEAAAIRDELQAYRHN
T

// query: D domain of SEQ ID NO: 411 (designed binder) MGSWVEFVDRLWAIDERLDALGGSEAELAAFEKEIAAFESELQAYKGKGNPEVEFLRTWAAWIREDLQAYRHN
F

Try the binder D domain of SEQ ID NO: 438 (designed binder) MGSWYEFHHRLDAIYERLLALGGSEAELAAFEKEIAAFESELQAYKGKGNPEVEWLRSSAANIRKELQAYRHN
T

Data credit: patent US20250026849A1
